assay: Solubility in 40% w/w cyclodextrin solutions versus potassium phosphate buffer; assay type: physicochemical; details: 40% w/w Captisol aqueous solution, aqueous with cosolvent or surfactant or cyclodextrin, thermodynamic from solid; 40% Captisol (w/w, pH 6.7), room temperature (20-25° C.)
endpointLabel: solubility (mg/mL)

P = Nc1ncn([C@@H]2O[C@H](CO)[C@@H](O)[C@H]2O)c(=O)n1
Q = Nc1ncn([C@H]2C[C@H](O)[C@@H](CO)O2)c(=O)n1
Lower value for measured solubility? Options: P , Q In your reply, give the label of the chosen option.
P

###

experiment: Solubility in 40% w/w cyclodextrin solutions versus potassium phosphate buffer; type: physicochemical; details: 40% w/w HPGCD aqueous solution, aqueous with cosolvent or surfactant or cyclodextrin, thermodynamic from solid; 40% HPGCD (w/w, pH 7.0), room temperature (20-25° C.)
endpointLabel: solubility (mg/mL)
// return numeric value only (unit: mg/mL, not printed)

I am curious: what solubility value has been reported for Nc1ncn([C@@H]2O[C@H](CO)[C@@H](O)[C@H]2O)c(=O)n1 ?
22

###

assay: Solubility in 40% w/w cyclodextrin solutions versus potassium phosphate buffer; format: physicochemical; settings: 40% w/w HPBCD aqueous solution, aqueous with cosolvent or surfactant or cyclodextrin, thermodynamic from solid; 40% HPBCD (w/w, pH 7.2), room temperature (20-25° C.)
endpointLabel: solubility (mg/mL)

1 = Nc1ncn([C@H]2C[C@H](O)[C@@H](CO)O2)c(=O)n1 [decitabine, 5-aza-2′-deoxycytidine]
2 = Nc1ncn([C@@H]2O[C@H](CO)[C@@H](O)[C@H]2O)c(=O)n1 [5-azacytidine]
solubility comparison. Which is larger, 1 or 2 ? In your reply, give the label of the chosen option.
1

These data points were gathered from patent US20060128653A1.
